- tested_target: HLA-A*25:01
- experiment_summary: IEDB peptide-MHC binding, purified MHC/competitive/fluorescence; bounds were set here for any values at or beyond the usual limits of such assays
- run_conditions: source organism: Mus musculus
quantity_name: IC50

**Query** Return reported IC50; argument: "FSSCPVAY"
**Result** ≥ 20 µM

###

- tested_target: HLA-A*02:03
- experiment_summary: IEDB peptide-MHC binding, purified MHC/competitive/radioactivity; filed as Kd, often an IC50 or EC50 that approximates it; bounds were set here for any values at or beyond the usual limits of such assays
- run_conditions: source organism: Dengue virus 1 Brazil/97-11/1997
quantity_name: Kd (nM)
Note: unit nM is implicit; provide only the numeric part.

LLFKTSAGV : 12

**Query** What value of Kd on HLA-A*02:03 does "ALIAVLTGGV" have?
**Result** 1.06
